- assay_notes: Oral bioavailability in Sprague-Dawley rat at 5 mg/kg
- Assay type: ADME, organism-based
- test_conditions: in vivo
quantity: bioavailability (%)

Please review the following examples before continuing.
COc1cc(C2CCN(CC(N)=O)CC2)ccc1Nc1ncc2ccc(-c3ccccc3OC)n2n1    43
COc1cc(C2CCN(C(=O)C3CCN3)CC2)ccc1Nc1ncc2ccc(-c3ccccc3OC)n2n1 (racemic)    15
COc1cc(C2CCN(CC(O)CF)CC2)ccc1Nc1ncc2ccc(-c3ccccc3OC)n2n1 (racemic)    16
COc1cc(C2CCN(C[C@H](O)CO)CC2)ccc1Nc1ncc2ccc(-c3ccccc3OC)n2n1    15

[P] COc1cc(C2CCN(CC(N)=O)CC2)ccc1Nc1ncc2c(C)cc(-c3ccccc3N(C)S(C)(=O)=O)n2n1
[Q] COc1cc(C2CCN(C(=O)C(C)(C)N)CC2)ccc1Nc1ncc2ccc(-c3ccccc3OC)n2n1
[R] COc1cc(C2CCN(C)CC2)ccc1Nc1ncc2ccc(-c3ccccc3OC)n2n1
[S] COc1cc(C2CCN(CC(N)=O)CC2)ccc1Nc1ncc2c(Cl)cc(-c3ccccc3N(C)S(C)(=O)=O)n2n1
Rank by bioavailability (largest to smallest). Please, when replying, give the labels in the order that was requested. S, P, Q, R
